# credit: patent EP2848929A1

# target of assay: OBP14 (Apis mellifera, UniProt A0A8U0WQC3)
# Sequence (A0A8U0WQC3 entry or part of it): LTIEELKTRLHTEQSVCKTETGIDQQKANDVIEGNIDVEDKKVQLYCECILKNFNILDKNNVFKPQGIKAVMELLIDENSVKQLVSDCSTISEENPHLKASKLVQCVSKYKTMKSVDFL
# assay comment: biochemical
# Assay type: binding, honeybees
# test parameters: from Langmuir isotherm plot, half saturation concentration (50% surface coverage); read-out: KD
readout: Kd (µM)
Numbers only, in µM.

Challenge: Record request: Kd value, item COC(=O)c1ccc(O)c(OC)c1 [Methyl vanillate, Methyl 4-hydroxy-3-methoxybenzoate]
Response given: 24

----------
Field: pKd. Provide a value for each of the compounds that follow.
# target of assay: OBP14 (Apis mellifera, UniProt A0A8U0WQC3)
# assay comment: biochemical
# Format: binding, honeybees
# test parameters: 10^- 6[KD] /M, Table 1; KD = 1/KA from titration, Langmuir model; 1mM PBS, pH = 8.0
Give bare numbers, as −log10 of the molar value.

Worked cases, pKd given:
- compound: "CC(C)=CCCC(C)=CC=O (mixture of isomers)"
  target of assay: "OBP14 (Apis mellifera, UniProt A0A8U0WQC3)"
  pKd: 3.23
- compound: "COc1cc(CC(=O)O)ccc1O"
  target of assay: "OBP14 (Apis mellifera, UniProt A0A8U0WQC3)"
  pKd: 5.19
- compound: "CC(C)=CCC/C(C)=C/CO"
  target of assay: "OBP14 (Apis mellifera, UniProt A0A8U0WQC3)"
  pKd: 2.95

State the recorded pKd for every item in the following list.
1. C=CCc1ccc(O)c(OC)c1
2. CC(=O)CCC=C(C)C

Response given:
[5.04, 2.85]

----------
# target of assay: OBP14 (Apis mellifera)
# assay comment: biochemical
# Format: binding, honeybees
# test parameters: KD, from Langmuir isotherm plot, half saturation concentration (50% surface coverage)
readout: pKd
One number for each entry, as −log10 of the molar value.

Worked cases, pKd given:
- molecule: "C=CCc1ccc(O)c(OC)c1 [Eugenol, 4-Allyl-2-methoxyphenol]"
  pKd: 5.72
- molecule: "CC(=O)CCC=C(C)C [Sulcatone, 6-Methylhept-5-en-2-one]"
  pKd: 2.82

Let us examine a further case.
Challenge: Record request: pKd value, item CC(C)=CCCC(C)=CC=O (mixture of isomers) [Citral, (2E)-3,7-dimethylocta-2,6-dienal]
Response given: 3.26

----------
# target of assay: OBP14 (Apis mellifera)
# assay comment: biochemical
# Format: binding, honeybees
# test parameters: Table 1; KD = 1/KA from titration, Langmuir model; 1mM PBS, pH = 8.0; read-out: 10^- 6[KD] /M
readout: pKd
Numbers only, as −log10 of the molar value.

Challenge: Record request: pKd value, item CC(=O)OCCC(C)C [Isoamyl acetate, 3-methylbutyl acetate]
Response given: 3.09

----------
# target of assay: OBP14 (Apis mellifera, UniProt A0A8U0WQC3)
# assay comment: biochemical
# Type: binding, honeybees
# test parameters: from Langmuir isotherm of change in drain current ΔIDS vs odorant concentration [Od] (Fig. 1D); read-out: KD
readout: pKd
One number for each entry, as −log10 of the molar value.

Challenge: Record request: pKd value, item COC(=O)c1ccc(O)c(OC)c1 [Methyl vanillate, Methyl 4-hydroxy-3-methoxybenzoate]
Response given: 5.00

----------
# target of assay: UniProtKB A0A8U0WQC3
# assay comment: biochemical
# Type: binding, honeybees
# test parameters: qualitative ranking from biosensor results

- molecule: "CC(C)=CCCC(C)=CC=O (mixture of isomers)"
  binding to OBP14 (in words): "moderate or weak binders"
- molecule: "CC(=O)CCC=C(C)C"
  binding to OBP14 (in words): "behave poorly"
- molecule: "CC(=O)OCCC(C)C [Isoamyl acetate, 3-methylbutyl acetate]"
  binding to OBP14 (in words): "behave poorly"
- molecule: "CC(C)=CCC/C(C)=C/CO"
  binding to OBP14 (in words): "moderate or weak binders"

----------
# target of assay: OBP14 (Apis mellifera)
# assay comment: biochemical
# Format: binding, honeybees
# test parameters: 10^2 [KA] /M^-1, Table 2; affinity constant KA = kon/koff from titration, Langmuir model fit
readout: Kd (µM)
Answers are plain numbers, in µM.

- compound: "COc1cc(/C=C/C=O)ccc1O"
  unit descriptor: "µM"
  Kd: 8.06

Let us examine a further case.
Challenge: Short answer please: Kd, OBP14 (Apis mellifera), entry COc1cc(C=O)ccc1O [Vanillin, 4-Hydroxy-3-methoxybenzaldehyd]
Response given: 20.7

----------
# target of assay: OBP14 (Apis mellifera, UniProt A0A8U0WQC3)
# assay comment: biochemical
# Type: binding, honeybees
# test parameters: 10^-6 [KD] /M, Table 2; KD = 1/KA from titration, Langmuir model fit
readout: Kd (µM)
One number for each entry, in µM.

Worked cases, Kd given:
- molecule: "C=CCc1ccc(OC)c(OC)c1"
  target of assay: "OBP14 (Apis mellifera, UniProt A0A8U0WQC3)"
  unit descriptor: "µM"
  recorded number: 520
- molecule: "C=CCc1ccc(O)c(OC)c1"
  target of assay: "OBP14 (Apis mellifera, UniProt A0A8U0WQC3)"
  unit descriptor: "µM"
  recorded number: 9.2
- molecule: "COc1cc(/C=C/C=O)ccc1O"
  target of assay: "OBP14 (Apis mellifera, UniProt A0A8U0WQC3)"
  unit descriptor: "µM"
  recorded number: 9.1

Challenge: Record request: Kd value, item COc1cc(C=O)ccc1O [Vanillin, 4-Hydroxy-3-methoxybenzaldehyd]
Response given: 23.8

----------
# target of assay: OBP14 (Apis mellifera, UniProt A0A8U0WQC3)
# assay comment: biochemical
# Format: binding, honeybees
# test parameters: from linear relationship between reaction rate constant k and odorant concentration (Fig. 1B); read-out: KD
readout: pKd
Give bare numbers, as −log10 of the molar value.

Challenge: Record request: pKd value, item COC(=O)c1ccc(O)c(OC)c1 [Methyl vanillate, Methyl 4-hydroxy-3-methoxybenzoate]
Response given: 4.52

----------
# target of assay: OBP14 (Apis mellifera)
# assay comment: biochemical
# Type: binding, honeybees
# test parameters: Table 2; KD = 1/KA from titration, Langmuir model fit; read-out: 10^-6 [KD] /M
readout: Kd

Challenge: Short answer please: Kd, OBP14 (Apis mellifera), entry COC(=O)c1ccc(O)c(OC)c1 [Methyl vanillate, Methyl 4-hydroxy-3-methoxybenzoate]
Response given: 22 µM

----------
# target of assay: OBP14 (Apis mellifera, UniProt A0A8U0WQC3)
# assay comment: biochemical
# Format: binding, honeybees
# test parameters: Table 2; affinity constant KA = kon/koff from titration, Langmuir model fit
readout: 10^2 [KA] /M^-1

- molecule: "COc1cc(CCC(C)=O)ccc1O [Vanillyl acetone, 4-(4-hydroxy-3-methoxyphenyl)butan-2-one]"
  target of assay: "OBP14 (Apis mellifera, UniProt A0A8U0WQC3)"
  10^2 [KA] /M^-1: "409.7 ± 0.3 10^2 M^-1"
- molecule: "COC(=O)c1ccc(O)c(OC)c1 [Methyl vanillate, Methyl 4-hydroxy-3-methoxybenzoate]"
  target of assay: "OBP14 (Apis mellifera, UniProt A0A8U0WQC3)"
  10^2 [KA] /M^-1: "479 ± 136 10^2 M^-1"
- molecule: "C=CCc1ccc(O)c(OC)c1"
  target of assay: "OBP14 (Apis mellifera, UniProt A0A8U0WQC3)"
  10^2 [KA] /M^-1: "1087 ± 91 10^2 M^-1"

Let us examine a further case.
Challenge: Short answer please: 10^2 [KA] /M^-1, OBP14 (Apis mellifera, UniProt A0A8U0WQC3), entry C=CCc1ccc(OC)c(OC)c1
Response given: 19.23 ± 0.03 10^2 M^-1

----------
# target of assay: OBP14 (Apis mellifera, UniProt A0A8U0WQC3)
# assay comment: biochemical
# Assay type: binding, honeybees
# test parameters: KD, from the kinetic measurement (titration fitted with Langmuir model)
readout: pKd
One number for each entry, as −log10 of the molar value.

- compound: "CC(=O)CCC=C(C)C"
  pKd: 2.85

State the recorded pKd for every item in the following list.
1. CC(C)=CCCC(C)=CC=O (mixture of isomers)
2. C=CCc1ccc(O)c(OC)c1

Response given:
[3.23, 5.04]

----------
# target of assay: OBP14 (Apis mellifera, UniProt A0A8U0WQC3)
# assay comment: biochemical
# Type: binding, honeybees
# test parameters: read-out: [koff] /s ^-1
readout: koff (s⁻¹)
Numbers only, in s⁻¹.

Worked cases, koff given:
- molecule: "CC(C)=CCCC(C)=CC=O (mixture of isomers) [Citral, (2E)-3,7-dimethylocta-2,6-dienal]"
  target of assay: "OBP14 (Apis mellifera, UniProt A0A8U0WQC3)"
  koff / s⁻¹: 0.0035
- molecule: "CC(C)=CCC/C(C)=C/CO [Geraniol, (2E)-3,7-Dimethylocta-2,6-dien-1-ol]"
  target of assay: "OBP14 (Apis mellifera, UniProt A0A8U0WQC3)"
  koff / s⁻¹: 0.0077
- molecule: "CC(=O)CCC=C(C)C [Sulcatone, 6-Methylhept-5-en-2-one]"
  target of assay: "OBP14 (Apis mellifera, UniProt A0A8U0WQC3)"
  koff / s⁻¹: 0.0074

State the recorded koff for every item in the following list.
1. C=CCc1ccc(O)c(OC)c1 [Eugenol, 4-Allyl-2-methoxyphenol]
2. COc1cc(CC(=O)O)ccc1O [Homovanillic acid]

Response given:
[0.003, 0.0078]
